TARGET_DESC: recombinant form of Glutaminase 1 (GAC) (Homo sapiens, UniProt O94925)
Sequence (O94925 137-598 isoform O94925-3 limits assumed): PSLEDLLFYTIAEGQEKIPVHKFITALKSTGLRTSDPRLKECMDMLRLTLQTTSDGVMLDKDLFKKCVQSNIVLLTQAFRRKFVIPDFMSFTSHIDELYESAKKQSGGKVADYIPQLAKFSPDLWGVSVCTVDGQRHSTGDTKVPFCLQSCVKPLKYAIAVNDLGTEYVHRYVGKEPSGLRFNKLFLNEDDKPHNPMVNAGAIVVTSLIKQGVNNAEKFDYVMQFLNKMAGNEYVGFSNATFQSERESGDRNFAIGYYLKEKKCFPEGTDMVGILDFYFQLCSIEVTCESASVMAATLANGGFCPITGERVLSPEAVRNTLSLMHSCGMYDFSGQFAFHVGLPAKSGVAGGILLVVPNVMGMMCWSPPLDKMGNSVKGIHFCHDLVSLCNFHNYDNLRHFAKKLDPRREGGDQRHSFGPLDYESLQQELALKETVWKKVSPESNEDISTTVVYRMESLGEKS
ASSAY_METHOD_TEXT: Recombinant Enzyme Assay - Time Dependence (60 min preincubation)
Format: biochemical
IC50 less than 4 nM is Criterion met; IC50 greater than or equal to 4 nM is Criterion not met.

# check: IC50 < 4 nM for "CCCCNC(=O)Cc1cccc(CC(=O)Nc2ccc(CCCCc3nnc(NC(=O)Cc4ccccc4)s3)nn2)c1"
Criterion met

Next:
# check: IC50 < 4 nM for "CC(C)CNC(=O)Cc1cccc(CC(=O)Nc2ccc(CCCCc3nnc(NC(=O)Cc4ccccc4)s3)nn2)c1"
Criterion met

# check: IC50 < 4 nM for CCC(=O)NC(C)c1cccc(CC(=O)Nc2ccc(CCCCc3nnc(NC(=O)Cc4ccccc4)s3)nn2)c1 (centres unmarked)
Criterion not met

# check: IC50 < 4 nM for "CC(C)(O)Cc1cccc(CC(=O)Nc2nnc(CCCCc3ccc(NC(=O)Cc4ccccc4)nn3)s2)c1"
Criterion not met

# check: IC50 < 4 nM for CC(N)c1cccc(CC(=O)Nc2ccc(CCCCc3nnc(NC(=O)C(C)c4ccccc4)s3)nn2)c1 (centres unmarked)
Criterion not met

# check: IC50 < 4 nM for "CCCCS(=O)(=O)Cc1cccc(CC(=O)Nc2nnc(CCCCc3ccc(NC(=O)Cc4ccccc4)nn3)s2)c1"
Criterion met
